src = patent US20260184687A1

# target desc: MALT1-GS-Ub (6-His-hMALT-1 residues 339-715 fused to ubiquitin) (Homo sapiens)
# experiment: biochemical
Structures can show the parent of a compound that is named as a salt.
metric name: pIC50
Scale for pIC50: -log10 of concentration given in mol/L; no unit attached.

Some compounds with recorded pIC50:
CN(C(=O)C1CNC1)[C@@H](c1ccc(NC2Cc3ccccc3C2(C)C)cc1)C(F)(F)F (stereo partly drawn) [Example 72, Hydrochloride] ... 6.57
CN(C(=O)C1CCOCC1)[C@@H](c1ccc(NC2Cc3ccccc3C2(C)C)cc1)C(F)(F)F (single isomer, unassigned) [Example 18] ... 6.48
CN(C(=O)CN1CCCC1=O)[C@@H](c1ccc(NC2Cc3ccccc3C2(C)C)cc1)C(F)(F)F (single isomer, unassigned) [Example 46] ... 6.60

In one line, give reported pIC50 of the entry CN(C(=O)C1CCNCC1)[C@@H](c1ccc(NC2Cc3ccccc3C2)cc1)C(F)(F)F (single isomer, unassigned) .
6.37

In one line, give reported pIC50 of the entry CN(C(=O)C1CNC1)C(c1ccc(NC2Cc3ccccc3C2(C)C)nc1)C(F)(F)F (single isomer, unassigned) [Example 87] .
5.91

In one line, give reported pIC50 of the entry CN(C(=O)c1cocn1)[C@@H](c1ccc(NC2Cc3ccccc3C2(C)C)cc1)C(F)(F)F (single isomer, unassigned) [Example 27] .
6.72

* * *

# target desc: MALT1-GS-Ub (6-His-hMALT-1 residues 339-715 fused to ubiquitin) (Homo sapiens, UniProt Q9UDY8)
# Sequence (Q9UDY8 with tags, fused parts or gaps limits assumed): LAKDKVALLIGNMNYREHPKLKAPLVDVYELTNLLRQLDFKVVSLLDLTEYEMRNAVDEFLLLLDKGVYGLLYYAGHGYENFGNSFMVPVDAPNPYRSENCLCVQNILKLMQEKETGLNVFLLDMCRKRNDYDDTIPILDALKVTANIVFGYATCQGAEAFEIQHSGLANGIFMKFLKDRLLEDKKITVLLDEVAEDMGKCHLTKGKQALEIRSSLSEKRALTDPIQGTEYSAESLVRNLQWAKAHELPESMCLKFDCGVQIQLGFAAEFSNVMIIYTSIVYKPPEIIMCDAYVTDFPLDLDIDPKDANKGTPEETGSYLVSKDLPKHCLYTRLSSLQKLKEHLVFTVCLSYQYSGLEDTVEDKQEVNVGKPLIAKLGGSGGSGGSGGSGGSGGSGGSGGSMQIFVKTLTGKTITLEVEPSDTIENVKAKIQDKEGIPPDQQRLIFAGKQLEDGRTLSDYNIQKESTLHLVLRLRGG
# experiment: biochemical
Reported values of IC50 for individual entries
Give the quantity in nM, number only.

CC(=O)N1CC(OC(=O)N(C)[C@@H](c2ccc(NC3Cc4ccccc4C3(C)C)cc2)C(F)(F)F)C1 (single isomer, unassigned) [Example 58] ... 190

In one line, give reported IC50 of the entry CN(C(=O)c1cc[nH]c(=O)c1)C(c1ccc(NC2Cc3ccccc3C2(C)C)cn1)C(F)(F)F (single isomer, unassigned) [Example 96] .
140

In one line, give reported IC50 of the entry CN(C(=O)c1cc[nH]c(=O)c1)[C@@H](c1ccc(NC2Cc3ccccc3C2(C)C)cc1)C(F)(F)F (single isomer, unassigned) [Example 20] .
210

* * *

# target desc: MALT1-GS-Ub (6-His-hMALT-1 residues 339-715 fused to ubiquitin) (Homo sapiens, UniProt Q9UDY8);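 note: in vitro MALT1 protease assay: enzyme preincubated with compound 30 min at room temperature, then cleavage of fluorogenic Ac-LVSR-AMC substrate (100 µM) followed by fluorescence every 15 min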
# experiment: biochemical
Reported values of pIC50 for individual entries
Scale for pIC50: -log10 of concentration given in mol/L; no unit attached.

Some compounds with recorded pIC50:
CN(C(=O)CCCC(=O)O)[C@@H](c1ccc(NC2Cc3ccccc3C2(C)C)cc1)C(F)(F)F (single isomer, unassigned) [Example 49] ... 6.59
COCC(=O)N(C)[C@@H](c1ccc(NC2Cc3ccccc3C2(C)C)cc1)C(F)(F)F (single isomer, unassigned) [Example 29] ... 6.80
CN1CC(C(=O)N(C)C(c2ccc(NC3Cc4ccccc4C3(C)C)nc2)C(F)(F)F)C1 (single isomer, unassigned) [Example 93] ... 6.00
CN(C(=O)c1cc[nH]c(=O)c1)C(c1ccc(NC2Cc3ccccc3C2(C)C)cn1)C(F)(F)F (single isomer, unassigned) [Example 99] ... 4.59
CN(C(=O)CO)[C@@H](c1ccc(NC2Cc3ccccc3C2(C)C)cc1)C(F)(F)F (single isomer, unassigned) ... 6.89
CN1CC(C(=O)N(C)[C@@H](c2ccc(NC3Cc4ccccc4C3(C)C)cc2)C(F)(F)F)C1 (single isomer, unassigned) [Example 75] ... 6.60

In one line, give reported pIC50 of the entry CN(C(=O)C1CCS(=O)(=O)CC1)[C@@H](c1ccc(NC2Cc3ccccc3C2(C)C)nc1)C(F)(F)F (single isomer, unassigned) [Example 36] .
6.42

In one line, give reported pIC50 of the entry CN(C(=O)C1CCS(=O)(=O)CC1)[C@@H](c1ccc(NC2Cc3cc(Cl)ccc3C2(C)C)cc1)C(F)(F)F (single isomer, unassigned) [Example 153] .
6.72
